target: furin, P09958; experiment: furin cleavage Z-score vs untreated control; higher = more cleavage, active = 3.5 or more, inactive = 1 or less, 8 variable residues between constant flanks; details: 30 min;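 also: purified furin at 1:10 enzyme:substrate in 50 mM HEPES pH 7.5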
Sequence (P09958 whole entry): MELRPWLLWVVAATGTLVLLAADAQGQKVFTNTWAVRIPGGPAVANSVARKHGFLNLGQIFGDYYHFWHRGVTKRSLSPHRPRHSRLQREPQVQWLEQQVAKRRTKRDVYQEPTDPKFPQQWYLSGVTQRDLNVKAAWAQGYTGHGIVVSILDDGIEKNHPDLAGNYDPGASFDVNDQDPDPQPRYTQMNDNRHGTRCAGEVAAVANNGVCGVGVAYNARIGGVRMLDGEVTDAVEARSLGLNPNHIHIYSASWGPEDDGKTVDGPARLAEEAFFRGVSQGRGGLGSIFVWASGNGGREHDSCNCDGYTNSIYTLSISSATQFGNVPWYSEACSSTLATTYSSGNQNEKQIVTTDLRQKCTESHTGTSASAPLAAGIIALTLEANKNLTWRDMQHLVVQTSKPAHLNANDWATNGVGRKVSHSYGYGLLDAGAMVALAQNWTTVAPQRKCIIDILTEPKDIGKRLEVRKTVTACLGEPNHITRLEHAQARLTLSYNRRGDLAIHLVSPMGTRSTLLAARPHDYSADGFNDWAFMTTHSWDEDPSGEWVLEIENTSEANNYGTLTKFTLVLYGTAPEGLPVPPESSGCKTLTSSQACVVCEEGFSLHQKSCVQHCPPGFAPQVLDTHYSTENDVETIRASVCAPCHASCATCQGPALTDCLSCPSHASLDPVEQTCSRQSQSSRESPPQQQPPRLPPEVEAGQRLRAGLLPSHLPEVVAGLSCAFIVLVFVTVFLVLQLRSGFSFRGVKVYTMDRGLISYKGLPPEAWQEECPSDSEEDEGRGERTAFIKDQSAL
The other results are listed elsewhere or left out. The true hit rate is not given.
Pick one: 1.0 for active, 0.0 for inactive

See these solved cases before continuing.
- sequence.record: "CAFRVGLHEYAGNASASA [HC1234]"
  class.label: 0.0
- sequence.record: "CAVVCCSISYAGNASASA [HC2044]"
  class.label: 0.0
- sequence.record: "CASKGRIRRRAGNASASA [FS-1081]"
  class.label: 1.0
- sequence.record: "CASRGRRRRRAGNASASA [FS-302]"
  class.label: 1.0
- sequence.record: "CAQRQRQRRAAGNASASA [FS-1253]"
  class.label: 1.0
- sequence.record: "CALAQRQRRIAGNASASA [FS-347]"
  class.label: 0.0

In: Per the assay record, what outcome was assigned to CASTPCSWHLAGNASASA [HC2528] ?
Out: 0.0
